- assay_system: Beta-secretase 2 (Homo sapiens, UniProt Q9Y5Z0)
- Sequence (Q9Y5Z0 whole entry): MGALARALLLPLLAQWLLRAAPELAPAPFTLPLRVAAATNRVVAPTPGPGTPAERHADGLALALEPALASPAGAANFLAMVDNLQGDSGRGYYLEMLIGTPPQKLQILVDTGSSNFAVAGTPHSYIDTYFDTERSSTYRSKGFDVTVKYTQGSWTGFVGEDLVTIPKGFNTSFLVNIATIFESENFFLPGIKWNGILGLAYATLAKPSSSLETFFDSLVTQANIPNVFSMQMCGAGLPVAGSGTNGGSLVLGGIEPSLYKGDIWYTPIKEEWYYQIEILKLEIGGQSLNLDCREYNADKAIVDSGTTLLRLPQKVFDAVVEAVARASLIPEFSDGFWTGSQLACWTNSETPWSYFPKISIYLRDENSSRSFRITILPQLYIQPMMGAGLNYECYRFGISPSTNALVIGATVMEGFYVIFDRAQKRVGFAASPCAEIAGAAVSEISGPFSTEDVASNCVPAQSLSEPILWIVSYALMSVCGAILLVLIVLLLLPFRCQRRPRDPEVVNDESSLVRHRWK
observation_type: IC50 (µM)
Numbers only; they are read as µM.

Task: Query (compound): C[C@@]1(N)Cc2cccc(c2)CC[C@H](c2ccccc2)NC(=O)c2cc(cc(-c3ccccc3C#N)c2)COC1=O ; field requested: IC50
Output: 41
